Compiled record: pIC50 values for human ACC2 (Homo sapiens (Human), UniProt O00763) across several sources.
pIC50: −log10 of the molar value.
observation type: pIC50

CCCOc1ccc(C#Cc2ccc(C(C)NC(C)=O)cc2)cc1 (centres unmarked)    6.60

I: Cc1ncoc1C(=O)N[C@@H](C)c1ccc(OC2CCN(c3cccc(C(F)(F)F)n3)C2)cc1 (some centres unmarked)
II: C[C@H](NC(=O)c1cnco1)c1ccc(OC2CCN(c3ccc(OC[C@H]4CC4(F)F)cn3)C2)cc1 (some centres unmarked)
III: CCNc1ncc(C#Cc2ccc(CC(C)NC(=O)C3CC3)cc2)cn1 (centres unmarked)
IV: CCNC(=O)C(C)c1ccc(O[C@@H]2CCN(c3ccnc(N(C)CC)n3)C2)cc1 (some centres unmarked)
Rank items: key pIC50, increasing. # the answer lists labels in the order requested
III, I, IV, II
(III: 5.28, I: 6.21, IV: 6.75, II: 6.96)

* * *

Compiled record: pIC50 values for human ACC2 (Homo sapiens (Human), UniProt O00763) across several sources.
pIC50: −log10 of the molar value.
observation type: pIC50

CC(=O)N[C@@H](C)c1ccc(C2CN(c3nc(N(C)CC(F)F)ncc3F)C2)cc1    6.00

a: CC(=O)NC(C)CCc1cnc(Oc2ccc(OCc3ccccc3)nc2)nc1 (stereo not shown)
b: CC(=O)NC(C)Cc1ccc(C#Cc2ccc(C(=O)NC3CCC3)cc2)cc1 (stereo not shown)
c: C=CCC(=O)N[C@@H](C)c1ccc(C2CN(c3ccc(OCC4CC4)cc3)C2)cc1
Put the entries in order of pIC50, starting with the largest number. # the answer lists labels in the order requested
c, b, a

* * *

Compiled record: IC50 values for human ACC2 (Homo sapiens (Human), UniProt O00763) across several sources.
observation type: IC50 (nM)

For orientation, consider the following solved cases.
CCOc1ccc(N2CCC(Oc3ccc([C@H](C)NC(C)=O)cc3)C2)c(F)c1F (some centres unmarked)    335
CCOCC(=O)N[C@@H](C)c1ccc(C2CN(c3ccc(OCC4CC4)cc3)C2)cc1    2580
CC(=O)NC(C)CCc1ccc(C#Cc2ccc(OCC3CC3)cc2)cc1 (centres unmarked)    170
C[C@H](NC(=O)CC#N)c1ccc(OC2CCN(c3ccnc(OCC(F)F)c3)C2)cc1 (some centres unmarked)    362
CCOCCOc1ccc(C#Cc2ccc(CC(C)NC(C)=O)cc2)cc1 (centres unmarked)    280

P: CC(Cc1ccc(C#Cc2cnc(OC3CCC3)nc2)cc1)NC(=O)C1CC1 (centres unmarked)
Q: CC(=O)N[C@@H](C)c1ccc(C#Cc2cnc(Oc3ccccc3)nc2)cc1
Dear colleague, could you let me know whether P or Q has the lower recorded IC50? Thanks. To answer, give the label that identifies your chosen option.
P
(P: 640 nM, Q: 980 nM)

* * *

Compiled record: IC50 values for human ACC2 (Homo sapiens (Human)) across several sources.
observation type: IC50 (nM)

For orientation, consider the following solved cases.
CCCOc1cnc(N2CCC(Oc3ccc([C@H](C)NC(C)=O)cc3)C2)c(Cl)c1 (some centres unmarked)    88
Cc1ccc(-c2ccc(C)c(C3=C(O)C4(CCCCC4)NC3=O)c2)cc1    18900

P: C[C@H](NC(=O)c1cncs1)c1ccc(CN2CCc3c(Br)cccc3C2)cc1
Q: CC(=O)N[C@@H](C)c1ccc(O[C@@H]2CCN(c3ccnc(OC4CC=CC4)c3)C2)cc1
Dear colleague, could you let me know whether P or Q has the lower recorded IC50? Thanks. To answer, give the label that identifies your chosen option.
Q
(Q: 68 nM, P: 179 nM)

a: CCNC(=O)Cc1ccc(C2CCN(c3ccnc(N(C)C4CCCC4)n3)CC2)cc1
b: CCC(C)N(C)c1ncc(C#Cc2ccc(CC(C)NC(C)=O)cc2)cn1 (centres unmarked)
c: CC(=O)NCC(C)(C)c1ccc(C#Cc2ccc(OCC3CC3)cc2)cc1
d: CC(=O)N[C@@H](C)c1ccc(O[C@@H]2CCN(c3ccnc(OCC(C)C)c3)C2)cc1
e: CCNC(=O)C(C)c1ccc(C#Cc2cnc(NCCF)nc2)cc1 (centres unmarked)
Rank items: key IC50, increasing. # the answer lists labels in the order requested
d, c, b, a, e
(d: 41 nM, c: 100 nM, b: 210 nM, a: 400 nM, e: 2500 nM)

I: C[C@H](NC(=O)C(F)F)c1ccc(OC2CCN(c3ccc(OCC4CC4(F)F)cn3)C2)cc1 (some centres unmarked)
II: CC(=O)NC(C)Cc1ccc(C#Cc2ccc(OCC3(C)COC3)cc2)cc1 (centres unmarked)
III: CCOc1ccc(C#Cc2ccc(CC(C)NC(=O)C3CCOC3)cc2)cc1 (centres unmarked)
Rank items: key IC50, increasing. # the answer lists labels in the order requested
I, II, III
(I: 35 nM, II: 340 nM, III: 490 nM)

1: CCNC(=O)C(C)c1ccc(C#Cc2cnc(N(C)C3CC3)nc2)cc1 (centres unmarked)
2: CC(=O)NC(C)Cc1ccc(C#Cc2ccnc(Oc3ccccc3)n2)cc1 (centres unmarked)
Dear colleague, could you let me know whether 1 or 2 has the lower recorded IC50? Thanks. To answer, give the label that identifies your chosen option.
2

1: CCN(C)C(=O)N[C@@H](C)c1ccc(OC2CCN(c3ccc(OCC4CC4)cc3)C2)cc1 (some centres unmarked)
2: CC(=O)NC(C)Cc1ccc(C#Cc2ccc(C(F)(F)F)cc2Cl)cc1 (centres unmarked)
For this pair, 1 and 2 , which shows a numerically higher IC50? To answer, give the label that identifies your chosen option.
2
(2: 1400 nM, 1: 165 nM)

* * *

Compiled record: IC50 values for human ACC2 (Homo sapiens (Human)) across several sources.
observation type: IC50 (nM)

C[C@H](NC(=O)c1cncs1)c1ccc(OC2CCN(c3cccc(C(F)(F)F)n3)C2)cc1 (stereo partly shown)    60
CCN(CC)c1nccc(N2CC[C@@H](Oc3ccc([C@H](C)NC(C)=O)cc3)C2)c1F    35
Cc1ccc(C(=O)N[C@@H](C)c2ccc(C3CN(c4ccc(OCC5CC5)cc4)C3)cc2)o1    2570
CC(=O)N[C@@H](C)c1ccc(C#Cc2cnc(OCC3CC3)nc2)cc1    1600
C[C@H](NC(=O)N(C)C)c1ccc(CN2Cc3ccc(OCC4CC4(F)F)cc3C(O)C2)cc1 (stereo partly shown)    173

1: CC(=O)N[C@@H](C)c1ccc(OC2CCN(c3ccc4c(c3)OCCCO4)C2)cc1 (stereo partly shown)
2: CC(=O)NC(C)Cc1ccc(C#Cc2cccc(C(=O)NCC(C)C)c2)cc1 (stereo not shown)
For this pair, 1 and 2 , which shows a numerically higher IC50? To answer, give the label that identifies your chosen option.
2
(2: 2800 nM, 1: 84 nM)

I: CC(=O)N[C@@H](C)c1ccc(OC2CCN(c3ccc(C)c(Cl)c3)C2)cc1 (stereo partly shown)
II: C[C@H](NC(=O)c1ccon1)c1ccc(C2CN(c3ccc(OCC4CC4)cc3)C2)cc1
Dear colleague, could you let me know whether I or II has the lower recorded IC50? Thanks. To answer, give the label that identifies your chosen option.
I
(I: 599 nM, II: 1400 nM)

A: CC(=O)NC(C)CCc1ccc(C2CN(c3ccc4c(c3)OCCO4)C2)cc1 (stereo not shown)
B: CCCOc1ccc(C#Cc2ccc(C(C)CNC(=O)N(C)C)cc2)cc1 (stereo not shown)
For this pair, A and B , which shows a numerically higher IC50? To answer, give the label that identifies your chosen option.
A
(A: 670 nM, B: 160 nM)

a: CC(=O)Nc1nc(C)c(C(=O)N[C@@H](C)c2ccc(CN3Cc4ccc(OCC5CC5)cc4C(F)C3)cc2)s1 (stereo partly shown)
b: CC(=O)NC(C)Cc1ccc(C#Cc2ccc(OCc3ccco3)cc2)cc1 (stereo not shown)
For this pair, a and b , which shows a numerically higher IC50? To answer, give the label that identifies your chosen option.
b

* * *

Compiled record: IC50 values for human ACC2 (Homo sapiens (Human)) across several sources.
observation type: IC50 (nM)

For orientation, consider the following solved cases.
COc1c(OCC2CC2(F)F)ccc2c1CCN(Cc1ccc([C@H](C)NC(=O)C3CC3)cc1)C2 (stereo partly drawn)    142
Cc1[nH]ncc1C(=O)N[C@@H](C)c1ccc(OC2CCN(c3ccc(OCC4CC4(F)F)cn3)C2)cc1 (stereo partly drawn)    169
CC(=O)NC(C)CCc1ccc(Oc2ccc(OCC3CC3)nc2)cc1 (stereo not drawn)    170

a: CC(Cc1ccc(C#Cc2cnc(OC3CCC3)nc2)cc1)NC(=O)N(C)C (stereo not drawn)
b: CCc1ccc(C#Cc2ccc(CC(C)NC(C)=O)cc2)cc1 (stereo not drawn)
c: CC(Cc1ccc(C#Cc2cnc(OC3CCC3)nc2)cc1)NC(=O)c1cncs1 (stereo not drawn)
d: COCC(=O)N[C@@H](C)c1ccc(C2CN(c3ccc(OCC4CC4)cc3)C2)cc1
Put the entries in order of IC50, starting with the largest number. # the answer lists labels in the order requested
d, b, c, a
